# Tested on: E. faecium
# TEST_DETAILS: AK assay 384-well format, Prestwick library screening
# Format: cell-based, Enterococcus faecium
# ASSAY_CONTEXT: Enterococcus faecium, 3 h; 50 μM final drug concentration; cutoff for positive-scoring molecules 3-fold increase; read-out: AK-based Prestwick Library Screening Results, E. faecium (fold increase in extracellular AK activity)
Where a name gives a salt, the structure may show the parent alone.
QUANTITY_NAME: fold induction at 50 µM

> print(dat)
                                   compound            quantity.name  measured
1  Clc1ccc(C(OCCN2CCCCC2)c2ccccc2)cc1 (stereo not shown) [Cloperastine hydrochloride]  fold induction at 50 µM       1.1
2  CC(C)n1c(/C=C/C(O)CC(O)CC(=O)O)c(-c2ccc(F)cc2)c2ccccc21 (stereo not shown) [Fluvastatin sodium salt]  fold induction at 50 µM         1
3  CC(=O)Nc1cc2ccccc2oc1=O [Compound 3-Acetamidocoumarin, 3-Acetamidocoumarin]  fold induction at 50 µM       0.8
4  CCN1CCC[C@H]1CNC(=O)c1c(OC)ccc(Br)c1OC [Remoxipride Hydrochloride]  fold induction at 50 µM       0.9

These measurements were taken from patent US10004701B2.
